- study target: aldose reductase (Rattus norvegicus)
- Construct: The crystalline lenses were homogenized in 135 mM sodium-potassium-phosphate buffer (pH 7.0) and centrifuged; from tissue; host or cells: lens of 6 week-old Wistar rats (30,000 rpm supernatant of homogenate)
- experiment description: Determination of Aldose Reductase Activity (In Vitro)
- Format: biochemical, rat (Wistar)
- run conditions: Table 3; at the concentration of 10 μM; read-out: Inhibition rate %
recorded endpoint: inhibition at 10 µM (%)

Worked examples follow.
{"compound": "COc1cc(OC)c2c(=O)cc(Sc3nnc(N)s3)oc2c1", "inhibition at 10 µM / %": 31.1}
{"compound": "CCOc1cc2oc(Sc3ccc(O)cc3)cc(=O)c2c(OCC)c1OC", "inhibition at 10 µM / %": 98.5}
{"compound": "COc1cc(OC)c2c(=O)cc(Sc3ccccc3C)oc2c1", "inhibition at 10 µM / %": 31.7}
{"compound": "CCCOc1cc2oc(Sc3ccc(O)cc3)cc(=O)c2c(OCCC)c1OC", "inhibition at 10 µM / %": 93}
{"compound": "COc1cc(OC)c2c(=O)cc(Sc3ccc(O)cc3)oc2c1", "inhibition at 10 µM / %": 88.7}
{"compound": "COc1c(OC(C)C)cc2oc(Sc3ccc(O)cc3)cc(=O)c2c1O", "inhibition at 10 µM / %": 98.1}
{"compound": "COc1cc(OC)c2c(=O)cc(Sc3ccncc3)oc2c1", "inhibition at 10 µM / %": 37.1}
{"compound": "COc1cc(OC)c2c(=O)cc(Sc3ccccc3O)oc2c1", "inhibition at 10 µM / %": 35.9}

[A] COc1cc(OC)c2c(=O)cc(Sc3cccc(C)c3)oc2c1
[B] CCC(C)Oc1cc2oc(Sc3ccc(O)cc3)cc(=O)c2c(OC(C)C)c1OC (stereo not drawn)
[C] COc1cc(OC)c2c(=O)cc(Sc3cccc(O)c3)oc2c1
Problem: I would appreciate it if you could sort these 3 compounds by inhibition at 10 µM, starting from the smallest number. Please respond by ranking the labels in the order requested.
Solution: A, C, B

---

- study target: aldose reductase (Rattus norvegicus)
- Construct: The crystalline lenses were homogenized in 135 mM sodium-potassium-phosphate buffer (pH 7.0) and centrifuged; from tissue; host or cells: lens of 6 week-old Wistar rats (30,000 rpm supernatant of homogenate)
- experiment description: Determination of Aldose Reductase Activity (In Vitro)
- Format: biochemical, rat (Wistar)
- run conditions: Table 3; at the concentration of 10 μM; read-out: Inhibition rate %
recorded endpoint: inhibition at 10 µM (%)

Worked examples follow.
{"compound": "COc1cc(O)c2c(=O)cc(SCc3ccc(O)cc3)oc2c1 [Example 74]", "units label": "%", "inhibition at 10 µM": 52.1}
{"compound": "COc1cc(OC)c2c(=O)cc(Sc3ccc(C(=O)O)cc3)oc2c1 [Example 64]", "units label": "%", "inhibition at 10 µM": 52.9}
{"compound": "COc1c(OC(C)C)cc2oc(S(=O)(=O)c3ccc(O)cc3)cc(=O)c2c1OC [Compound 2 obtained in Example 34]", "units label": "%", "inhibition at 10 µM": 96.6}
{"compound": "CCC(C)Oc1cc2oc(Sc3ccc(O)cc3)cc(=O)c2c(OC(C)CC)c1OC (centres unmarked) [Example 15]", "units label": "%", "inhibition at 10 µM": 98.4}
{"compound": "COc1cc(O)c2c(=O)cc(Nc3ccc(O)cc3)oc2c1 [Compound 2 obtained in Example 77]", "units label": "%", "inhibition at 10 µM": 40}
{"compound": "COc1cccc(Sc2cc(=O)c3c(OC)cc(OC)cc3o2)c1 [Example 47]", "units label": "%", "inhibition at 10 µM": 36.5}

[P] CCOc1c(OC)c(OCC=C(C)C)cc2oc(Sc3ccc(O)cc3)cc(=O)c12 [Example 31]
[Q] COc1cc(OC)c2c(=O)cc(Sc3ccccc3N)oc2c1 [Example 49]
Problem: Rank P against Q by their inhibition at 10 µM values and give the higher one. Your choice should be expressed through its label.
Solution: P
